# Plutella xylostella Mortality (%) annotations
System: Plutella xylostella
Assay: whole plant or invertebrate
Type: in vivo
Conditions: 500 ppm; 2nd-instar larvae, leaf immersion feeding

INSERT INTO assay_data (compound, quantity_measured, reported_result) VALUES
  ('CC(=O)C1Nc2c([S+]([O-])C(F)(F)F)c(C(F)(F)F)nn2-c2c(Cl)cc(C(F)(F)F)cc21 (stereo not drawn)', 'Plutella xylostella Mortality (%)', '96%');

Exam item: Param readout = Plutella xylostella Mortality (%); param system = Plutella xylostella; param query = N#Cc1nn2c(c1[S+]([O-])C(F)(F)F)NC(Cl)(CC(F)(F)F)c1c(Cl)cncc1-2 (stereo not drawn) ; response: value
Marked response: 100%

Exam item: Param readout = Plutella xylostella Mortality (%); param system = Plutella xylostella; param query = N#CCC1Nc2c(OC(F)(F)F)c(C#N)nn2-c2c(Cl)cc(C(F)(F)F)cc21 (stereo not drawn) ; response: value
Marked response: 95%

Exam item: Param readout = Plutella xylostella Mortality (%); param system = Plutella xylostella; param query = COC(=O)CC1(C(=O)OC)Nc2c([S+]([O-])C(F)(F)F)c(C#N)nn2-c2cncc(Cl)c21 (stereo not drawn) ; response: value
Marked response: 100%

Exam item: Param readout = Plutella xylostella Mortality (%); param system = Plutella xylostella; param query = N#Cc1nn2c(c1[S+]([O-])C(F)(F)F)NC(Cc1ccccc1)(C(=O)C(F)(F)F)c1c(Cl)cncc1-2 (stereo not drawn) ; response: value
Marked response: 91%

Exam item: Param readout = Plutella xylostella Mortality (%); param system = Plutella xylostella; param query = N#Cc1nn2c(c1[S+]([O-])C(F)(F)F)NC(CCCl)(C(=O)C(F)(F)F)c1c(Cl)cc(C(F)(F)F)cc1-2 (stereo not drawn) ; response: value
Marked response: 86%

Exam item: Param readout = Plutella xylostella Mortality (%); param system = Plutella xylostella; param query = CC(=O)C1(CC(=O)C(F)(F)F)Nc2c([S+]([O-])C(F)(F)F)c(C#N)nn2-c2cncc(Cl)c21 (stereo not drawn) ; response: value
Marked response: 86%

Exam item: Param readout = Plutella xylostella Mortality (%); param system = Plutella xylostella; param query = N#Cc1nn2c(c1[S+]([O-])C(F)(F)F)NC(Cc1ccccc1)(C(=O)C(F)(F)F)c1cc(C(F)(F)F)cc(Cl)c1-2 (stereo not drawn) ; response: value
Marked response: 100%

Exam item: Param readout = Plutella xylostella Mortality (%); param system = Plutella xylostella; param query = COC(=O)C(C)C1Nc2c([S+]([O-])C(F)(F)F)c(C#N)nn2-c2cncc(Cl)c21 (stereo not drawn) ; response: value
Marked response: 96%

Exam item: Param readout = Plutella xylostella Mortality (%); param system = Plutella xylostella; param query = N#Cc1nn2c(c1OC(F)(F)F)NC(C#N)c1c(Cl)cncc1-2 (stereo not drawn) ; response: value
Marked response: 99%

Exam item: Param readout = Plutella xylostella Mortality (%); param system = Plutella xylostella; param query = COC(=O)C1(CC(=O)OCC(F)(F)F)Nc2c([S+]([O-])C(F)(F)F)c(C#N)nn2-c2c(Cl)cc(C(F)(F)F)cc21 (stereo not drawn) ; response: value
Marked response: 100%

Exam item: Param readout = Plutella xylostella Mortality (%); param system = Plutella xylostella; param query = COC(=O)CC1(C(=O)OC)Nc2c([S+]([O-])C(F)(F)F)c(C#N)nn2-c2cc(C(F)(F)F)c(Cl)cc21 (stereo not drawn) ; response: value
Marked response: 100%

Exam item: Param readout = Plutella xylostella Mortality (%); param system = Plutella xylostella; param query = N#Cc1nn2c(c1[S+]([O-])C(F)(F)F)NC(CC(F)(F)F)(C(F)(F)F)c1cc(C(F)(F)F)cc(Cl)c1-2 (stereo not drawn) ; response: value
Marked response: 90%

Exam item: Param readout = Plutella xylostella Mortality (%); param system = Plutella xylostella; param query = COC(=O)C1(CC(=O)OCC(F)(F)F)Nc2c([S+]([O-])C(F)(F)F)c(C#N)nn2-c2c(C(F)(F)F)ccc(Cl)c21 (stereo not drawn) ; response: value
Marked response: 100%

Exam item: Param readout = Plutella xylostella Mortality (%); param system = Plutella xylostella; param query = COC(=O)CC1(C(=O)C(F)(F)F)Nc2c([S+]([O-])C(F)(F)F)c(C#N)nn2-c2c(Cl)cc(C(F)(F)F)cc21 (stereo not drawn) ; response: value
Marked response: 100%

* * *

# Toxicity determination Apis cernan Mortality (%) annotations
Tested on: Apis cernan
Assay: Toxicity test on adult worker bees of Apis cernan, small beaker method
Assay type: in vivo
Settings: 500 ppm, 48 hours
Kindly answer with a numeric value in %, unit omitted.

INSERT INTO results (compound, reported_result) VALUES
  ('N#Cc1cn2c(c1C#N)NC(C#N)(C#N)c1ccc([N+](=O)[O-])cc1-2', 5);

Exam item: Please report the recorded Toxicity determination Apis cernan Mortality (%) for `CC1(C)Nc2c(N)c(C#N)nn2-c2ccccc21` .
Marked response: 5

Exam item: Please report the recorded Toxicity determination Apis cernan Mortality (%) for `CC(=O)c1nn2c(c1Br)NC(C)(C)c1ccccc1-2` .
Marked response: 9

Exam item: Please report the recorded Toxicity determination Apis cernan Mortality (%) for Nc1cc2n(n1)-c1cnccc1C(F)(CC(F)(F)F)N2 (stereo not drawn) .
Marked response: 0

Exam item: Please report the recorded Toxicity determination Apis cernan Mortality (%) for `Nc1ccc2c(c1)-n1nc(C(F)(F)F)cc1NC2(C(F)(F)F)C(F)(F)F` .
Marked response: 12

Exam item: Please report the recorded Toxicity determination Apis cernan Mortality (%) for Cc1cc(-c2c(C#N)nn3c2NC(C(O)CO)c2cc(C(F)(F)F)cc(Cl)c2-3)c(C)o1 (stereo not drawn) .
Marked response: 7

Exam item: Please report the recorded Toxicity determination Apis cernan Mortality (%) for `CS(=O)(=O)Nc1ccc2c(c1)-n1cc(C#N)c(C#N)c1NC2(C#N)C#N` .
Marked response: 3

Exam item: Please report the recorded Toxicity determination Apis cernan Mortality (%) for N#Cc1nn2c(c1[S+]([O-])C(F)(F)F)NC(CC(F)(F)F)(C(O)CO)c1cc(C(F)(F)F)cc(Cl)c1-2 (stereo not drawn) .
Marked response: 8

Exam item: Please report the recorded Toxicity determination Apis cernan Mortality (%) for CNC(=O)C1(CC(=O)OC)Nc2c([S+]([O-])C(F)(F)F)c(C#N)nn2-c2c(Cl)cc(C(F)(F)F)cc21 (stereo not drawn) .
Marked response: 4

* * *

Test system: Spodoptera exigua
Experiment: whole plant or invertebrate
Format: in vivo
Conditions: 500 ppm; 2nd-instar larvae; leaf immersion feeding; 24 hours
quantity.measured: Spodoptera exigua Mortality (%) 500 ppm
Kindly answer with a numeric value in %, unit omitted.

Below, 5 molecules whose answers are already recorded.
INSERT INTO results (molecule, study_system, quantity_measured, units, reported_result) VALUES
  ('N#CCC1(C(=O)C(F)(F)F)Nc2c([S+]([O-])C(F)(F)F)c(C#N)nn2-c2ncc(C(F)(F)F)cc21 (stereo not shown) [a-30]', 'Spodoptera exigua', 'Spodoptera exigua Mortality (%) 500 ppm', '%', 90),
  ('COC(=O)CC1Nc2c([S+]([O-])C(F)(F)F)c(C#N)nn2-c2ncc(C(F)(F)F)cc21 (stereo not shown) [a-65]', 'Spodoptera exigua', 'Spodoptera exigua Mortality (%) 500 ppm', '%', 100),
  ('N#Cc1nn2c(c1[S+]([O-])C(F)(F)F)NC(C#N)c1cc(C(F)(F)F)cnc1-2 (stereo not shown) [a-72]', 'Spodoptera exigua', 'Spodoptera exigua Mortality (%) 500 ppm', '%', 89),
  ('N#Cc1nn2c(c1[S+]([O-])C(F)(F)F)NC(Cl)(CBr)c1cc(C(F)(F)F)cnc1-2 (stereo not shown) [a-45]', 'Spodoptera exigua', 'Spodoptera exigua Mortality (%) 500 ppm', '%', 91),
  ('C[S+]([O-])c1nn2c(c1C#N)NC(F)(C(F)(F)F)c1ccccc1-2 (stereo not shown) [Compound A26]', 'Spodoptera exigua', 'Spodoptera exigua Mortality (%) 500 ppm', '%', 100);

Exam item: Please report the recorded Spodoptera exigua Mortality (%) 500 ppm for N#Cc1nn2c(c1[S+]([O-])C(F)(F)F)NC(C(=O)C(F)(F)F)c1cc(C(F)(F)F)cnc1-2 (stereo not shown) [a-71] .
Marked response: 99

Exam item: Please report the recorded Spodoptera exigua Mortality (%) 500 ppm for N#Cc1nn2c(c1[S+]([O-])C(F)(F)F)NC(CBr)(C(=O)C(F)(F)F)c1cc(C(F)(F)F)cnc1-2 (stereo not shown) [a-29] .
Marked response: 91

Exam item: Please report the recorded Spodoptera exigua Mortality (%) 500 ppm for N#Cc1nn2c(c1[S+]([O-])C(F)(F)F)NC(C#N)(CC(=O)C(F)(F)F)c1cc(C(F)(F)F)cnc1-2 (stereo not shown) [a-57] .
Marked response: 100

Exam item: Please report the recorded Spodoptera exigua Mortality (%) 500 ppm for COC(=O)C1Nc2c([S+]([O-])C(F)(F)F)c(C(F)(F)F)nn2-c2ncc(C(F)(F)F)cc21 (stereo not shown) [a-87] .
Marked response: 100

Exam item: Please report the recorded Spodoptera exigua Mortality (%) 500 ppm for CC=CC1Nc2c([S+]([O-])C(F)(F)F)c(C(F)(F)F)nn2-c2ncc(C(F)(F)F)cc21 (stereo not shown) [a-109] .
Marked response: 89

Exam item: Please report the recorded Spodoptera exigua Mortality (%) 500 ppm for N#Cc1nn2c(c1[S+]([O-])C(F)(F)F)NC(Cl)c1cc(C(F)(F)F)cnc1-2 (stereo not shown) [a-80] .
Marked response: 85

Exam item: Please report the recorded Spodoptera exigua Mortality (%) 500 ppm for N#Cc1nn2c(c1[S+]([O-])C(F)(F)F)NC(CC(=O)C(F)(F)F)(C(F)(F)F)c1cc(C(F)(F)F)cnc1-2 (stereo not shown) [a-63] .
Marked response: 100

Exam item: Please report the recorded Spodoptera exigua Mortality (%) 500 ppm for COC(=O)C1(CC#N)Nc2c([S+]([O-])C(F)(F)F)c(C#N)nn2-c2ncc(C(F)(F)F)cc21 (stereo not shown) [a-2] .
Marked response: 97

Exam item: Please report the recorded Spodoptera exigua Mortality (%) 500 ppm for COC(=O)CC1(C(=O)OC)Nc2c(Cl)c(C#N)nn2-c2ncc(C(F)(F)F)cc21 (stereo not shown) [a-133] .
Marked response: 100

Exam item: Please report the recorded Spodoptera exigua Mortality (%) 500 ppm for CC1(C)Nc2c([S+]([O-])C(F)(F)F)c(C#N)nn2-c2ncc(C(F)(F)F)cc21 (stereo not shown) [a-51] .
Marked response: 89

Exam item: Please report the recorded Spodoptera exigua Mortality (%) 500 ppm for N#CC1Nc2c([S+]([O-])C(F)(F)F)c(C(F)(F)F)nn2-c2ncc(C(F)(F)F)cc21 (stereo not shown) [a-95] .
Marked response: 89
